Data provenance is patent US20070265208A1.

Test system: rat glial cells C6
Assay: Protection from necrosis induced by maitotoxin, C6 (wst-1 viability)
Format: cell-based
Settings: single product at 50 μM; n = 3 for Example 2, else n = 1
Description: Human neuroblastomas SHSY5Y and rat glial cells C6 are seeded at 25 000 cells per well in 96-well plates in DMEM 10% FBS for 24 hours. […] After incubation for 3 hours at 37° C. under an atmosphere of 5% CO2, the cell viability is determined by adding 10 μl of tetrazolium salts (wst-1, Roche, ref: 1644807). […] The quantity of formazan formed is directly correlated to the number of metabolically active cells in the culture. […]
Non-standard residues stand in square brackets, D forms with d. Residues, ends and D or L forms follow the SMILES beside them. ξ: configuration not given here. *: point of attachment. ξF = NC(Cc1ccccc1)C(=O)O; Cbz = O=C(OCc1ccccc1)*
Decide by Protection from necrosis induced by MTX on C6: equal to or exceeding 10% means MET, less means NOT MET.

>>> category_label("CC(C)C[C@@H](C=O)NC(=O)[C@H](CC(C)C)NC(=O)OCc1ccccc1")
"NOT MET"
>>> category_label("CC(C)C[C@H](NC(=O)OCc1ccccc1)C(=O)NC(C=O)Cc1ccccc1 (stereo partly drawn) [EXAMPLE 2 B] (Cbz-Leu-[ξF]-aldehyde)")
"MET"
>>> category_label("COc1ccc2c(c1)Nc1ccccc1S2 [EXAMPLE 2 A, 2-methoxy-10H-phenothiazine]")
"NOT MET"
>>> category_label("CCCC[C@@H](C=O)NC(=O)[C@H](CC(C)C)NC(=O)OCc1ccccc1")
"MET"
>>> category_label("CC(C)(C)c1cc(C(=O)O)cc(C(C)(C)C)c1O [EXAMPLE 1 A, 3-5-di-tert-butyl-4-hydroxybenzoic acid]")
"MET"

* * *

Tested on: calpain activity in human neuroblastomas (SHSY5Y)
Test: In situ calpain activity in human neuroblastomas SHSY5Y stimulated by maitotoxin
Type: cell-based
Details: read-out: Inhibition human calpain I, in situ (SHSY5Y) [IC50 (nM)]; n = 6; maitotoxin 1 nM; 4 h
test.readout: IC50 (nM)

>>> quantitative_readout("CC(C)C[C@@H](C=O)NC(=O)[C@H](CC(C)C)NC(=O)OCc1ccccc1 [EXAMPLE 1 B]")
13400

* * *

Target: human calpain I (Homo sapiens, UniProt P07384)
Construct: enzyme purified from human erythrocytes; purchased Calbiochem 208713; host or cells: human erythrocytes (native tissue source)
Sequence (P07384 whole entry): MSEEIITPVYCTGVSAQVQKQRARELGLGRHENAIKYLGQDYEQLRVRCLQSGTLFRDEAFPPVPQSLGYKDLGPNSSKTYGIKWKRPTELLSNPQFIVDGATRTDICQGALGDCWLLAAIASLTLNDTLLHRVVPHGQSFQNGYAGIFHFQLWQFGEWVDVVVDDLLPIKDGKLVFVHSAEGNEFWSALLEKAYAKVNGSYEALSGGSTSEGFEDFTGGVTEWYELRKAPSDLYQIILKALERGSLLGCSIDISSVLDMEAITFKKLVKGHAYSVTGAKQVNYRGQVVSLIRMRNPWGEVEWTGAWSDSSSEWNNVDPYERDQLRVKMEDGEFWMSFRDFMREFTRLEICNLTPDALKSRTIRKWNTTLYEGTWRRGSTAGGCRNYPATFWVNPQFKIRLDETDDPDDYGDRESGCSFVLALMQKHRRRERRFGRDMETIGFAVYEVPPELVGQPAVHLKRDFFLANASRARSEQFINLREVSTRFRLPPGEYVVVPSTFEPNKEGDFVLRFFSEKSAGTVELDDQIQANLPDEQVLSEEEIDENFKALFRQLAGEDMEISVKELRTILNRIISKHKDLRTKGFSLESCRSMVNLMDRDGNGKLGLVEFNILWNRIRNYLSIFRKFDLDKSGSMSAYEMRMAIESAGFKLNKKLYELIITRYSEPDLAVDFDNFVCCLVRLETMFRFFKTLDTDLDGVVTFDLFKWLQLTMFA
Sequence (P04632 whole entry partner): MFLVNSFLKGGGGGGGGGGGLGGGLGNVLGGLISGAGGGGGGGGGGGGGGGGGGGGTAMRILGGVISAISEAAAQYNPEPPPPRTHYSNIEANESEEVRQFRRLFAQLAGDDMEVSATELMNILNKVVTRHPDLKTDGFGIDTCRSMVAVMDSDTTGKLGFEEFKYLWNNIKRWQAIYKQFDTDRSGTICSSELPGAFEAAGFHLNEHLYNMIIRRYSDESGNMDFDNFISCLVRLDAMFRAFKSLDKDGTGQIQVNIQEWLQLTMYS
Assay: Effects on human calpain I (acellular, Suc-Leu-Tyr-AMC fluorescence)
Format: biochemical
Settings: enzyme purified from human erythrocytes; 1 h at 25°C; read-out: Inhibition human calpain I, acellular [IC50 (nM)]
Non-standard residues stand in square brackets, D forms with d. Residues, ends and D or L forms follow the SMILES beside them. ξ: configuration not given here. *: point of attachment. ξF = NC(Cc1ccccc1)C(=O)O; Cbz = O=C(OCc1ccccc1)*
test.readout: log10 IC50 (log10 of the value in nM)

>>> quantitative_readout("CC(C)C[C@H](NC(=O)OCc1ccccc1)C(=O)NC(C=O)Cc1ccccc1 (stereo partly drawn) [EXAMPLE 2 B] (Cbz-Leu-[ξF]-aldehyde)")
0.90
>>> quantitative_readout("O=C(O)C(S)=Cc1ccc(I)cc1 [EXAMPLE 4 B]")
3.71
>>> quantitative_readout("CC(C)C[C@@H](C=O)NC(=O)[C@H](CC(C)C)NC(=O)OCc1ccccc1 [EXAMPLE 1 B]")
0.78
>>> quantitative_readout("CCCC[C@@H](C=O)NC(=O)[C@H](CC(C)C)NC(=O)OCc1ccccc1 [EXAMPLE 3 B]")
0.45
>>> quantitative_readout("CC(=O)N[C@@H](CC(C)C)C(=O)N[C@@H](CC(C)C)C(=O)N[C@H](C=O)CCCNC(=N)N [LEUPEPTIN, leupeptin]")
1.86
